Target: Nuclear receptor subfamily 1 group I member 2 (Rattus norvegicus)
Experiment: Rat pregnane X receptor (rPXR) activation by small molecules, qHTS assay (AID 1346983); note: % is set by controls: 0 for no effect and ±100 for the full control effect; nearly all actives have a fitted effect of over 20% in size
Conditions: rPXR luciferase reporter cells, One-Glo luminescence, 24 h; hits give high values
Results filed as inconclusive are left out.
measured metric: max activation (%)
# unit: % | format: bare number

compound=O=C(CCCN1CCC(O)(c2ccc(Br)cc2)CC1)c1ccc(F)cc1 target="Nuclear receptor subfamily 1 group I member 2 (Rattus norvegicus)" meas_value=-1.43
compound="CC(=O)CC(c1ccc([N+](=O)[O-])cc1)c1c(O)c2ccccc2oc1=O (centres undefined)" target="Nuclear receptor subfamily 1 group I member 2 (Rattus norvegicus)" meas_value=-1.52
compound=CCc1cccc(N(C)C(N)=Nc2cccc3ccccc23)c1 target="Nuclear receptor subfamily 1 group I member 2 (Rattus norvegicus)" meas_value=-1.24
compound=O=C(CCCCCCC(=O)Nc1ccccc1)NO target="Nuclear receptor subfamily 1 group I member 2 (Rattus norvegicus)" meas_value=-13.8
compound=CN1CCN(CCCN2c3ccccc3Sc3ccc(S(=O)(=O)N(C)C)cc32)CC1 target="Nuclear receptor subfamily 1 group I member 2 (Rattus norvegicus)" meas_value=4.5

Exercise: Short answer please: max activation, Nuclear receptor subfamily 1 group I member 2 (Rattus norvegicus), entry `CN1CCN(c2c(F)cc3c(=O)c(C(=O)O)cn4c3c2OCN4C)CC1`
Key: -1.24

Exercise: Next compound up: `O=C(O)Cc1ccc(-c2ccccc2)cc1`
Key: -2.71

Exercise: Next compound up: `CCNC(=O)N1CCN(CCCC(c2ccc(F)cc2)c2ccc(F)cc2)CC1`
Key: -17

Exercise: Next compound up: `C[N+]1(C)CCC(=C(c2ccccc2)c2ccccc2)CC1`
Key: -1.49
